Quick reference: Papp of the listed items.
Assay Explanation: Passive transcellular permeability of the compound at pH 4 by PAMPA
Type: ADME
Run Parameters: read-out: permeability
Note: unit ×10⁻⁶ cm/s is implicit; provide only the numeric part.

Prompt: Consider the compound COc1cccc2c(=O)c(Cc3ccccc3)c(C)[nH]c12 and give its measured Papp.
Response: 164

Prompt: For CCc1c(C)[nH]c2cc(OC)c(Br)cc2c1=O , what is its reported Papp?
Response: 81.9

Prompt: Item Cc1[nH]c2c(Cl)cc(Cl)cc2c(=O)c1-c1ccccc1 has what recorded Papp?
Response: 162

Prompt: Fill in: Papp of CCCCCCC/C=C/c1c(C)[nH]c2ccccc2c1=O is ___
Response: 174

Prompt: // query Papp value for entry CCc1c(C)[nH]c2cc(OC)c(Cl)cc2c1=O
Response: 96.4

Prompt: Looking for the measured Papp of COc1cc2[nH]c(C)cc(=O)c2cc1Cl , can you help?
Response: 11.9

###

Assay Explanation: Passive transcellular permeability of the compound at pH 4 by PAMPA
Assay type: ADME
Run Parameters: read-out: permeability
Answer NOT MET if Papp is under 1000 nm/s, and MET if it is 1000 nm/s or more.

Below are worked cases with known answers.
Chemical String | Assigned Class
C=C(CCCCC)c1c(C)[nH]c2cc(OC)c(Cl)cc2c1=O | MET
Cc1[nH]c2ccc(F)cc2c(=O)c1Br | NOT MET
COc1cc2[nH]c(C)c(Br)c(=O)c2cc1Cl | MET
Cc1[nH]c2c(Cl)c(Cl)ccc2c(=O)c1-c1ccccc1 | MET
Cc1[nH]c2ccc(Cl)cc2c(=O)c1Br | NOT MET

Okay, now this molecule:
Prompt: Has COc1cccc2[nH]c(C)c(Cc3ccccc3)c(=O)c12 a recorded Papp greater than or equal to 1000 nm/s?
Response: NOT MET

###

Tested on: Plasmodium falciparum
Assay Explanation: Antimalarial activity against chloroquine, mefloquine, pyrimethamine and atovaquone-resistant Plasmodium falciparum TM90-C2B infected in human A+ erythrocytes after 72 hrs by SYBR Green I assay
Assay type: functional, organism-based
The reader will find reported EC50 values listed item by item below.
# value in nM; strip the unit string

Worked examples follow.
Chemical String | EC50 (nM)
COc1cc2[nH]c(C)c(C)c(=O)c2cc1Cl | 27.3
COc1cc2[nH]c(C)c(-c3ccccc3)c(=O)c2cc1F | 83
Cc1[nH]c2cc(Cl)ccc2c(=O)c1Cc1ccccc1 | 15700
CCCCC#Cc1c(C)[nH]c2cc(OC)c(Cl)cc2c1=O | 4210
O=C1C(O)=C([C@H]2CC[C@H](c3ccc(Cl)cc3)CC2)C(=O)c2ccccc21 | 6230

Query molecule follows.
Prompt: Entry Cc1[nH]c2ccccc2c(=O)c1C1CCCCC1 : reported EC50 = ?
Response: 2230

###

We begin with a simple list: items and their reported Papp.
Assay Explanation: Passive transcellular permeability of the compound at pH 7.4 by PAMPA
Format: ADME
Run Parameters: read-out: permeability
Answer in ×10⁻⁶ cm/s, number only, no unit symbol.

Here's what some known entries look like.
Chemical String | Papp / ×10⁻⁶ cm/s
COc1cc2[nH]c(C)c(CC(C)C)c(=O)c2cc1Cl | 368
COc1ccc2[nH]c(C)c(Br)c(=O)c2c1 | 16.7
Cc1c(Cc2ccccc2)c(=O)c2cc(Cl)ccc2n1C | 489
Cc1nc2ccccc2c(OCc2ccccc2)c1Br | 794
COc1cc2[nH]c(C)c(Cc3ccccc3)c(=O)c2cc1Cl | 566

Prompt: Given Cc1[nH]c2ccc(Cl)c(Cl)c2c(=O)c1-c1ccccc1 , state its recorded Papp.
Response: 192

Prompt: Papp for Cc1[nH]c2ccccc2c(=O)c1-c1ccccc1 ?
Response: 33

###

Listing: Papp of selected molecules
Assay Explanation: Passive transcellular permeability of the compound at pH 4 by PAMPA
Assay type: ADME
Run Parameters: read-out: permeability
Dear colleague, please return just the value in ×10⁻⁶ cm/s, with no unit written.

Some entries whose results are on file:
Chemical String | Measure Name | Unit | Meas Value
Cc1nc2ccccc2c(OCc2ccccc2)c1Br | Papp | ×10⁻⁶ cm/s | 99.7
COc1ccc2nc(C)c(Cc3ccccc3)c(OC)c2c1 | Papp | ×10⁻⁶ cm/s | 294
COc1ccc2c(c1)c(=O)c(Cc1ccccc1)c(C)n2C | Papp | ×10⁻⁶ cm/s | 295

Prompt: Name the recorded Papp for Cc1[nH]c2ccccc2c(=O)c1Cc1ccccc1 .
Response: 110

Prompt: Bench note: what Papp did COc1ccc2[nH]c(C)c(Cc3ccccc3)c(=O)c2c1 show?
Response: 167

Prompt: # input molecule: Cc1[nH]c2cc(Cl)ccc2c(=O)c1-c1ccccc1 ; wanted: its Papp
Response: 37.8

Prompt: Which Papp value belongs to Cc1[nH]c2ccccc2c(=O)c1/C=C/c1ccccc1 ?
Response: 222

###

# key: entry, value: EC50
Tested on: Plasmodium falciparum
Assay Explanation: Antimalarial activity against chloroquine, mefloquine, pyrimethamine and atovaquone-resistant Plasmodium falciparum TM90-C2B infected in human A+ erythrocytes after 72 hrs by SYBR Green I assay
Assay type: functional, organism-based

Chemical String | Assayed Target | Meas Value
CCCCC#Cc1c(C)[nH]c2ccc(F)cc2c1=O | Plasmodium falciparum | > 9.64 µM

Prompt: What value of EC50 on Plasmodium falciparum does CCCCC#Cc1c(C)[nH]c2ccc(OC)cc2c1=O have?
Response: > 9.21 µM

Prompt: Form entry - test system: Plasmodium falciparum; read-out: EC50; molecule: Cc1c(-c2ccccc2)c(=O)c2cc(Cl)ccc2n1C
Response: > 8.8 µM

Prompt: # get_value(readout= EC50, system= Plasmodium falciparum) for COc1c(Cc2ccccc2)c(C)nc2ccc(Cl)cc12
Response: > 8.4 µM

Prompt: Quick check: EC50 on Plasmodium falciparum, item Cc1[nH]c2c(Cl)cccc2c(=O)c1Cc1ccccc1 ?
Response: > 8.81 µM

Prompt: Provide value of EC50 for this record tested with Plasmodium falciparum: Cc1[nH]c2c(Cl)c(Cl)ccc2c(=O)c1-c1ccccc1
Response: > 8.22 µM

###

Assay Explanation: Lipophilicity, log D of the compound at pH 7.4
Run Parameters: buffer
A collection of compounds and their measured logD
Keep the answer to the number alone.

Chemical String | logD
Cc1[nH]c2ccc(Br)cc2c(=O)c1Br | 1.76
Cc1[nH]c2c(Cl)cccc2c(=O)c1-c1ccccc1 | 2.6
Cc1[nH]c2ccccc2c(=O)c1Cc1ccccc1 | 1.93
Cc1[nH]c2ccc(F)cc2c(=O)c1Br | 1.61
COc1cccc2c(=O)c(Cc3ccccc3)c(C)[nH]c12 | 2.24

Prompt: Quick one: logD of CCc1c(C)[nH]c2cc(OC)c(Br)cc2c1=O ?
Response: 1.7

Prompt: Endpoint output: logD of COc1ccc2[nH]c(C)c(Cc3ccccc3)c(=O)c2c1 . Value?
Response: 2.53

Prompt: Query: logD; subject: COc1cc2[nH]c(C)c(C)c(=O)c2cc1Cl
Response: 1.86

Prompt: Recorded logD for Cc1[nH]c2cc(Cl)ccc2c(=O)c1Cc1ccccc1 , please?
Response: 2.69

Prompt: For the compound shown here, Cc1[nH]c2ccccc2c(=O)c1-c1ccccc1 , give the reported logD.
Response: 2.02

Prompt: Entry Cc1ccc2[nH]c(C)c(Br)c(=O)c2c1 has what logD?
Response: 1.07

Prompt: Any idea what its logD is? The compound is CCCCC#Cc1c(C)[nH]c2ccc(OC)cc2c1=O
Response: 5.25

Prompt: Look up logD for this compound: CCCCCCCc1c(C)nc2cc(OC)ccc2c1O
Response: 3.69

Prompt: Need logD of CCCCC#Cc1c(C)[nH]c2ccc(F)cc2c1=O , thanks.
Response: 5.64

Prompt: Return reported logD; argument: Cc1[nH]c2ccccc2c(=O)c1C1CCCCC1
Response: 2.45

Prompt: What measured logD goes with Cc1[nH]c2ccc(Cl)c(Cl)c2c(=O)c1-c1ccccc1 ?
Response: 2.83

Prompt: Need logD, item CCCCCCCCCc1c(C)[nH]c2ccccc2c1=O
Response: 4.33

Prompt: Look up logD: COc1cc2[nH]c(C)c(/C=C/C(=O)OC(C)(C)C)c(=O)c2cc1Cl
Response: 1.81

Prompt: What logD value was documented for this compound, COc1ccc2c(OC)c(Cc3ccccc3)c(C)nc2c1 ?
Response: 4.35

###

Items are presented alongside their recorded EC50.
System: Plasmodium falciparum
Assay Explanation: Antimalarial activity against chloroquine, mefloquine, pyrimethamine and atovaquone-resistant Plasmodium falciparum TM90-C2B infected in human A+ erythrocytes after 72 hrs by SYBR Green I assay
Assay type: functional, organism-based
Kindly answer with a numeric value in nM, unit omitted.

Below: 3 compounds and their reported EC50.
Chemical String | Unit | EC50
Cc1[nH]c2ccccc2c(=O)c1Br | nM | 77.6
COc1ccc2c(=O)cc(C)[nH]c2c1 | nM | 12500
COc1cc2[nH]c(C)c(/C=C/C(=O)OC(C)(C)C)c(=O)c2cc1Cl | nM | 53.6

Now turn to the next compound.
Prompt: Recorded EC50 of Cc1[nH]c2ccc(Cl)cc2c(=O)c1Cc1ccccc1 , please.
Response: 3280
